Numbers sourced from patent US20040115622A1.

# TARGET_UNDER_TEST: T1, HLA-DR molecule encoded by the allele DRB3*0101 (human)
# T1 chain 1: not shown
# T1 chain 2: not shown
# PROTOCOL_SUMMARY: competition ELISA vs biotinylated Lol 191-210
Threshold check on IC50: strictly below 80 nM is 1 (yes); on or above 80 nM is 0 (no).

hey, is IC50 for DPEREVLEWRFDSRLA (modifications not checked) [Nef12 peptide (positions 175-190 of the HIV-1 Nef protein, Bru strain), P03406 175-190] lower than 80 nM or not?
0 (no)

hey, is IC50 for WIYHTQGYFPDWQNYT (modifications not checked) [Nef7 peptide (positions 113-128 of the HIV-1 Nef protein, Bru strain), P03406 113-128] lower than 80 nM or not?
1 (yes)

hey, is IC50 for LTFGWCYKLVPVEPDKVEEANKGENTSLLHPV (modifications not checked) [Nef10 peptide (positions 137-168 of the HIV-1 Nef protein, Bru strain), P03406 137-168] lower than 80 nM or not?
0 (no)

hey, is IC50 for LEWRFDSRLAFHHVA (modifications not checked) [Nef13.2 peptide (positions 181-195 of the HIV-1 Nef protein, Bru strain), P03406 181-195] lower than 80 nM or not?
1 (yes)

hey, is IC50 for EWRFDSRLAFHHVAREL (modifications not checked) [Nef13 peptide (positions 182-198 of the HIV-1 Nef protein, Bru strain), P03406 182-198] lower than 80 nM or not?
0 (no)

hey, is IC50 for REVLEWRFDSRLAFH (modifications not checked) [Nef13.1 peptide (positions 178-192 of the HIV-1 Nef protein, Bru strain), P03406 178-192] lower than 80 nM or not?
1 (yes)

hey, is IC50 for TQGYFPDWQNYTPGPG (modifications not checked) [Nef8 peptide (positions 117-132 of the HIV-1 Nef protein, Bru strain), P03406 117-132] lower than 80 nM or not?
0 (no)

hey, is IC50 for WRFDSRLAFHHVARE (modifications not checked) [Nef13.3 peptide (positions 183-197 of the HIV-1 Nef protein, Bru strain), P03406 183-197] lower than 80 nM or not?
0 (no)
